The reported numbers originate from the Human Domainome abundance scans (Beltran et al. 2025).

I'd appreciate it if you could supply abundance fitness values for the items below.
B1: Retinoic acid receptor beta, residues 85 to 161; numbered along this chain, P10826 (parent)
chain: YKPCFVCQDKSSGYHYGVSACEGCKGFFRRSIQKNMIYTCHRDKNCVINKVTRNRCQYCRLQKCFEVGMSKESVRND

Variants of: B1
Experiment: abundance fitness (aPCA) (normalised: wild type 0, dead -1); higher = more abundant; growth selection in yeast, the domain comes from the species named
Conditions: Homo sapiens
Write the value as a bare number.

[in] Read off the recorded abundance fitness for C7G
[out] -1.05

[in] Read off the recorded abundance fitness for R29Y
[out] -0.339

[in] Read off the recorded abundance fitness for M36H
[out] -0.025

[in] Read off the recorded abundance fitness for C40P
[out] -0.703

[in] Read off the recorded abundance fitness for C21R
[out] -0.666

[in] Read off the recorded abundance fitness for K2P
[out] -0.169

[in] Read off the recorded abundance fitness for T39N
[out] 0.003

[in] Read off the recorded abundance fitness for S11D
[out] 0

[in] Read off the recorded abundance fitness for R42S
[out] 0.014

[in] Read off the recorded abundance fitness for D43M
[out] -0.076

[in] Read off the recorded abundance fitness for T39G
[out] -0.156

[in] Read off the recorded abundance fitness for C24M
[out] -0.817

[in] Read off the recorded abundance fitness for R53S
[out] 0.126
